# targetUnderTest: JAK3, catalytic domain (795–1124) (Homo sapiens, UniProt P52333)
# Sequence (P52333 795-1124): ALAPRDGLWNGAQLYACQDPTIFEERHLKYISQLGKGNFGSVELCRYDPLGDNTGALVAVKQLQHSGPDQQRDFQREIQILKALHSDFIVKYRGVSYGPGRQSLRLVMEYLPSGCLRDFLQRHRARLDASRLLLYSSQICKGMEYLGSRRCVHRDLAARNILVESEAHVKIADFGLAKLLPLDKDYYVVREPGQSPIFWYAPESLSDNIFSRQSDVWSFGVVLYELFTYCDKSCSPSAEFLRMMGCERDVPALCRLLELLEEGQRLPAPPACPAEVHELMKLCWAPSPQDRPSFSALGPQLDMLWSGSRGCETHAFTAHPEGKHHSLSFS
propertyName: IC50

[
  {
    "compound": "CNC(=O)c1cnc(S(C)(=O)=O)nc1N1CCCC(n2nc(-c3ccc(Oc4ccccc4)cc3)c3c(N)ncnc32)C1 (stereo not shown)",
    "reading": "> 1000 nM"
  }
]

----------
Entries and their difference in %Control versus reference compound Ib at 1 µM
# targetUnderTest: ABL1(Q252H)-nonphosphorylated (Homo sapiens, UniProt P00519, Q252H)
# Construct: purchased Eurofins DiscoverX KINOMEscan (scanTK)
# methodSummary: KINOMEscan ScanTK
# Assay type: binding
# assayContext: @1000nM
propertyName: difference in %Control versus reference compound Ib at 1 µM (%)

[
  {
    "molecule": "COC(=O)c1cnc(S(C)(=O)=O)nc1N1CCCC(n2nc(-c3ccc(Oc4ccccc4)cc3)c3c(N)ncnc32)C1 (stereo not shown) [Compound 8b]",
    "unitAbbrev": "%",
    "reading": 52
  },
  {
    "molecule": "CCOC(=O)c1cnc(S(C)(=O)=O)nc1N1CCC[C@@H](n2nc(-c3ccc(Oc4ccccc4)cc3)c3c(N)ncnc32)C1 [Compound 8c]",
    "unitAbbrev": "%",
    "reading": 23
  },
  {
    "molecule": "CNC(=O)c1cnc(S(C)(=O)=O)nc1N1CCCC(n2nc(-c3ccc(Oc4ccccc4)cc3)c3c(N)ncnc32)C1 (stereo not shown) [Compound 8d]",
    "unitAbbrev": "%",
    "reading": 13
  },
  {
    "molecule": "Cc1cnc(S(C)(=O)=O)nc1N1CCCC(n2nc(-c3ccc(Oc4ccccc4)cc3)c3c(N)ncnc32)C1 (stereo not shown) [Compound 8a]",
    "unitAbbrev": "%",
    "reading": 25
  }
]

----------
# targetUnderTest: TEC (Homo sapiens, UniProt P42680)
# Construct: purchased Eurofins DiscoverX KINOMEscan (scanTK)
# Sequence (P42680 1-631): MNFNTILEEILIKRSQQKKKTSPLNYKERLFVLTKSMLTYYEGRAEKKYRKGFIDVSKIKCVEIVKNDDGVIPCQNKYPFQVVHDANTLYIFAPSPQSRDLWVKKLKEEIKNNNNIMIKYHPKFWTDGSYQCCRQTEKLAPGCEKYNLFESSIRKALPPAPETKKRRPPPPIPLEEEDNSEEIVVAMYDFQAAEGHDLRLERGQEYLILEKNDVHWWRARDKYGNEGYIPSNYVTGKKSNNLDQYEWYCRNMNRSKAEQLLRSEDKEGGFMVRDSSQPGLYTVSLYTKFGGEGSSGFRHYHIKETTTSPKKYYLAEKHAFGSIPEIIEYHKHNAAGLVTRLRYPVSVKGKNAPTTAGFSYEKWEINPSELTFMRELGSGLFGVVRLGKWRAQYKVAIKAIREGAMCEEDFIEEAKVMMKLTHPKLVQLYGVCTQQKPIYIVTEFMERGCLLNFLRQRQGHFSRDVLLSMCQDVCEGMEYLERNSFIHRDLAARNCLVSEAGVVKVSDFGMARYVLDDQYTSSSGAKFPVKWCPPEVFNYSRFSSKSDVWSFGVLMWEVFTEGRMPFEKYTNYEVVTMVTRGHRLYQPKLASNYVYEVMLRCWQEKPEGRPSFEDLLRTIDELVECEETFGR
# methodSummary: KINOMEscan ScanTK
# Type: binding
# assayContext: read-out: %Control @1000nM
propertyName: remaining binding at 1 µM (%)

[
  {
    "molecule": "COC(=O)c1cnc(S(C)(=O)=O)nc1N1CCCC(n2nc(-c3ccc(Oc4ccccc4)cc3)c3c(N)ncnc32)C1 (centres unmarked) [Compound 8b]",
    "reading": 32
  },
  {
    "molecule": "C=CC(=O)N1CCC[C@@H](n2nc(-c3ccc(Oc4ccccc4)cc3)c3c(N)ncnc32)C1 [Compound 1g, Ibrutinib, reference compound]",
    "reading": 20
  },
  {
    "molecule": "CCOC(=O)c1cnc(S(C)(=O)=O)nc1N1CCC[C@@H](n2nc(-c3ccc(Oc4ccccc4)cc3)c3c(N)ncnc32)C1 [Compound 8c]",
    "reading": 53
  },
  {
    "molecule": "CNC(=O)c1cnc(S(C)(=O)=O)nc1N1CCCC(n2nc(-c3ccc(Oc4ccccc4)cc3)c3c(N)ncnc32)C1 (centres unmarked) [Compound 8d]",
    "reading": 40
  },
  {
    "molecule": "Cc1cnc(S(C)(=O)=O)nc1N1CCCC(n2nc(-c3ccc(Oc4ccccc4)cc3)c3c(N)ncnc32)C1 (centres unmarked) [Compound 8a]",
    "reading": 27
  }
]
